tested on: Rhipicephalus sanguineus; test: Rapid screening protocol for topical application on brown dog ticks (% mortality); settings: data from laboratory 2
Record rule met whenever R. sanguineus Mortality (%) 24 h is at 80% or higher; record rule not met when lower.

Worked set:
[
  {
    "molecule": "CCCN(N=C(C)c1cc(Cl)ccc1NS(=O)(=O)C(F)(F)F)c1cc(Cl)cc(Cl)c1",
    "class label": "rule not met"
  },
  {
    "molecule": "CC(=NN(c1cccc(Cl)c1)C(C)C)c1cc(Cl)ccc1NS(=O)(=O)C(F)(F)F",
    "class label": "rule not met"
  },
  {
    "molecule": "CCC(=NN1CCOC1=O)c1cc(Cl)ccc1NS(=O)(=O)C(F)(F)F",
    "class label": "rule met"
  },
  {
    "molecule": "C/C(=N\\N(CCC#N)C(=O)C(C)C)c1cc(Cl)ccc1NS(=O)(=O)C(F)(F)F",
    "class label": "rule met"
  },
  {
    "molecule": "CCOCN(c1ccc(Cl)cc1C(C)=NN(C)c1ccccc1)S(=O)(=O)C(F)(F)F",
    "class label": "rule not met"
  }
]

Then this molecule:
Prompt: Would you say `CC(=NN(C)c1ccccc1)c1ccc(C(F)(F)F)cc1NS(=O)(=O)C(F)(F)F` shows R. sanguineus Mortality (%) 24 h at minimum 80%?
Response: rule not met

###

tested on: Haemonchus contortus; assay: Haemonchus contortus larvacidal assay (larval development, LD99)
For each record, check the reported H. contortus LD99: if it is below 4 ppm write Condition met, else write Condition not met.

Worked set:
[
  {
    "chem smiles": "CCC(=NNc1ccc(Cl)c(Cl)c1)c1cc(Cl)ccc1NS(=O)(=O)C(F)(F)F",
    "class label": "Condition met"
  },
  {
    "chem smiles": "CC(=NNc1cc(Cl)cc(Cl)c1)c1cc(Cl)ccc1NS(=O)(=O)C(F)(F)F",
    "class label": "Condition met"
  },
  {
    "chem smiles": "CCC(=NNc1ccc(C(F)(F)F)cc1)c1cc(Cl)ccc1NS(=O)(=O)C(F)(F)F",
    "class label": "Condition not met"
  },
  {
    "chem smiles": "CCC(=NNc1cccc(Cl)c1Cl)c1cc(Cl)ccc1NS(=O)(=O)C(F)(F)F",
    "class label": "Condition met"
  },
  {
    "chem smiles": "CC(=NNc1ccc(Br)cc1)c1cc(Cl)ccc1NS(=O)(=O)C(F)(F)F",
    "class label": "Condition not met"
  }
]

Prompt: Hi there! Is H. contortus LD99 for `CC(=NNc1ccc(Cl)cc1Cl)c1cc(Cl)ccc1NS(=O)(=O)C(F)(F)F` below 4 ppm, do you know?
Response: Condition met

Prompt: Would you mind doing `CCC(=NNc1cc(Cl)ccc1Cl)c1cc(Cl)ccc1NS(=O)(=O)C(F)(F)F` as well?
Response: Condition met

Prompt: Would you mind doing `CC(=NNc1ccc(Cl)c(Cl)c1)c1cc(Cl)ccc1NS(=O)(=O)C(F)(F)F` as well?
Response: Condition met

###

# reported R. sanguineus Mortality (%) 24 h; entries follow
system: Rhipicephalus sanguineus; test: Rapid screening protocol for topical application on brown dog ticks (% mortality); details: data from laboratory 2
API: value field is a number in %; no unit string.

As a guide, the following entries are already answered.
[
  {
    "chem smiles": "CCOC(=O)N(CC)N=C(C)c1cc(Cl)ccc1NS(=O)(=O)C(F)(F)F",
    "assay value": 95
  },
  {
    "chem smiles": "CCN(N=C(C)c1cc(Cl)ccc1NS(=O)(=O)C(F)(F)F)C(=O)OC",
    "assay value": 100
  },
  {
    "chem smiles": "CCN(N=C(C)c1cc(Cl)ccc1NS(=O)(=O)C(F)(F)F)c1cc(Cl)cc(Cl)c1",
    "assay value": 100
  }
]

Prompt: Find the measured R. sanguineus Mortality (%) 24 h: item `CCOC(=O)N(CC)N=C(CC)c1cc(Cl)ccc1NS(=O)(=O)C(F)(F)F` , target or system Rhipicephalus sanguineus.
Response: 100

Prompt: Would you mind doing `CCCN(N=C(C)c1cc(Cl)ccc1NS(=O)(=O)C(F)(F)F)c1ccc(Cl)c(Cl)c1` as well?
Response: 73

Prompt: Would you mind doing `CC(=NN1CC(=O)NC1=O)c1cc(Cl)ccc1NS(=O)(=O)C(F)(F)F` as well?
Response: 100

Prompt: Would you mind doing `CCC(=NNC(=O)c1ccc(Cl)cc1)c1cc(Cl)ccc1NS(=O)(=O)C(F)(F)F` as well?
Response: 75

Prompt: Would you mind doing `CCN(N=C(C)c1cc(Cl)ccc1NS(=O)(=O)C(F)(F)F)c1ccc(Cl)c(Cl)c1` as well?
Response: 98

###

tested on: Ctenocephalides felis; settings: 24 h
quantity name: C. felis Mortality (%) 24 h
API: value field is a number in %; no unit string.

As a guide, the following entries are already answered.
[
  {
    "molecule": "COC(=O)NN=C(C)c1cc(Cl)ccc1NS(=O)(=O)C(F)(F)F",
    "C. felis Mortality (%) 24 h": 16
  },
  {
    "molecule": "O=S(=O)(Nc1ccc(Cl)cc1C1=NN(c2ccccc2)CC1)C(F)(F)F",
    "C. felis Mortality (%) 24 h": 37
  },
  {
    "molecule": "O=S(=O)(Nc1ccc(Cl)cc1-c1ccn(-c2ccccc2)n1)C(F)(F)F",
    "C. felis Mortality (%) 24 h": 43
  }
]

Now, please, on to the next molecule.
Prompt: Need C. felis Mortality (%) 24 h of Cn1nccc1-c1cc(Cl)ccc1NS(=O)(=O)C(F)(F)F (single isomer, unassigned) , thanks.
Response: 9

###

tested on: Ctenocephalides felis; details: 8 h; data from laboratory 1
# reported C. felis Mortality (%) 8 h; entries follow
The answer consists of two parts: a number and, after it, its unit.

As a guide, the following entries are already answered.
[
  {
    "chem smiles": "O=S(=O)(Nc1ccc(Cl)cc1C1=NN(c2ccc(Cl)cc2)CC1)C(F)(F)F",
    "system under test": "Ctenocephalides felis",
    "quantity name": "C. felis Mortality (%) 8 h",
    "assay value": "14%"
  },
  {
    "chem smiles": "CCN(N=C(C)c1cc(Cl)ccc1NS(=O)(=O)C(F)(F)F)c1cccc(Cl)c1Cl",
    "system under test": "Ctenocephalides felis",
    "quantity name": "C. felis Mortality (%) 8 h",
    "assay value": "39%"
  },
  {
    "chem smiles": "O=S(=O)(Nc1ccc(Cl)cc1C1=NN(c2ccccc2F)CC1)C(F)(F)F",
    "system under test": "Ctenocephalides felis",
    "quantity name": "C. felis Mortality (%) 8 h",
    "assay value": "14%"
  },
  {
    "chem smiles": "O=S(=O)(Nc1ccc(Cl)cc1C1=NN(c2cccc(F)c2)CC1)C(F)(F)F",
    "system under test": "Ctenocephalides felis",
    "quantity name": "C. felis Mortality (%) 8 h",
    "assay value": "7%"
  },
  {
    "chem smiles": "CC(=NN(c1ccc(Cl)c(Cl)c1)C(C)C)c1cc(Cl)ccc1NS(=O)(=O)C(F)(F)F",
    "system under test": "Ctenocephalides felis",
    "quantity name": "C. felis Mortality (%) 8 h",
    "assay value": "18%"
  },
  {
    "chem smiles": "CCN(N=C(C)c1cc(Cl)ccc1NS(=O)(=O)C(F)(F)F)c1cc(Cl)ccc1Cl",
    "system under test": "Ctenocephalides felis",
    "quantity name": "C. felis Mortality (%) 8 h",
    "assay value": "12%"
  }
]

Prompt: Need C. felis Mortality (%) 8 h of `CC(C)=CCN(c1ccc(Cl)cc1C(C)=NN(C)c1ccccc1)S(=O)(=O)C(F)(F)F` , thanks.
Response: 7%

Prompt: Would you mind doing `CC(=NN(C)C(=O)c1ccccc1)c1cc(Cl)ccc1NS(=O)(=O)C(F)(F)F` as well?
Response: 20%

###

tested on: Ctenocephalides felis; details: 8 h; data from laboratory 1
# reported C. felis Mortality (%) 8 h; entries follow
API: value field is a number in %; no unit string.

As a guide, the following entries are already answered.
[
  {
    "compound": "CC(=Nn1c(C)n[nH]c1=O)c1cc(Cl)ccc1NS(=O)(=O)C(F)(F)F [Compound 192]",
    "C. felis Mortality (%) 8 h": 3
  },
  {
    "compound": "CC(=NN(C)c1ccc(F)cc1)c1cc(Cl)ccc1NS(=O)(=O)C(F)(F)F [Compound 64]",
    "C. felis Mortality (%) 8 h": 1
  }
]

Prompt: Need C. felis Mortality (%) 8 h of CC/C(=N\N(C)C1CCCCC1)c1cc(Cl)ccc1NS(=O)(=O)C(F)(F)F [Compound 217] , thanks.
Response: 3

###

test system: Ctenocephalides felis; settings: 8 h
quantity name: C. felis Mortality (%) 8 h
API: value field is a number in %; no unit string.

[
  {
    "compound": "Cn1nccc1-c1cc(Cl)ccc1NS(=O)(=O)C(F)(F)F (single isomer, unassigned)",
    "assay value": 5
  }
]

Prompt: Need C. felis Mortality (%) 8 h of `O=S(=O)(Nc1ccc(Cl)cc1C1=NN(c2ccccc2)CC1)C(F)(F)F` , thanks.
Response: 18

Prompt: Would you mind doing `COC(=O)NN=C(C)c1cc(Cl)ccc1NS(=O)(=O)C(F)(F)F` as well?
Response: 16

Prompt: Would you mind doing `O=S(=O)(Nc1ccc(Cl)cc1-c1ccn(-c2ccccc2)n1)C(F)(F)F` as well?
Response: 10
